Cited source for all entries: patent US8691865B2

# subject-of-test: human Cav2.2 (Homo sapiens)
# Sequence (Q00975 whole entry): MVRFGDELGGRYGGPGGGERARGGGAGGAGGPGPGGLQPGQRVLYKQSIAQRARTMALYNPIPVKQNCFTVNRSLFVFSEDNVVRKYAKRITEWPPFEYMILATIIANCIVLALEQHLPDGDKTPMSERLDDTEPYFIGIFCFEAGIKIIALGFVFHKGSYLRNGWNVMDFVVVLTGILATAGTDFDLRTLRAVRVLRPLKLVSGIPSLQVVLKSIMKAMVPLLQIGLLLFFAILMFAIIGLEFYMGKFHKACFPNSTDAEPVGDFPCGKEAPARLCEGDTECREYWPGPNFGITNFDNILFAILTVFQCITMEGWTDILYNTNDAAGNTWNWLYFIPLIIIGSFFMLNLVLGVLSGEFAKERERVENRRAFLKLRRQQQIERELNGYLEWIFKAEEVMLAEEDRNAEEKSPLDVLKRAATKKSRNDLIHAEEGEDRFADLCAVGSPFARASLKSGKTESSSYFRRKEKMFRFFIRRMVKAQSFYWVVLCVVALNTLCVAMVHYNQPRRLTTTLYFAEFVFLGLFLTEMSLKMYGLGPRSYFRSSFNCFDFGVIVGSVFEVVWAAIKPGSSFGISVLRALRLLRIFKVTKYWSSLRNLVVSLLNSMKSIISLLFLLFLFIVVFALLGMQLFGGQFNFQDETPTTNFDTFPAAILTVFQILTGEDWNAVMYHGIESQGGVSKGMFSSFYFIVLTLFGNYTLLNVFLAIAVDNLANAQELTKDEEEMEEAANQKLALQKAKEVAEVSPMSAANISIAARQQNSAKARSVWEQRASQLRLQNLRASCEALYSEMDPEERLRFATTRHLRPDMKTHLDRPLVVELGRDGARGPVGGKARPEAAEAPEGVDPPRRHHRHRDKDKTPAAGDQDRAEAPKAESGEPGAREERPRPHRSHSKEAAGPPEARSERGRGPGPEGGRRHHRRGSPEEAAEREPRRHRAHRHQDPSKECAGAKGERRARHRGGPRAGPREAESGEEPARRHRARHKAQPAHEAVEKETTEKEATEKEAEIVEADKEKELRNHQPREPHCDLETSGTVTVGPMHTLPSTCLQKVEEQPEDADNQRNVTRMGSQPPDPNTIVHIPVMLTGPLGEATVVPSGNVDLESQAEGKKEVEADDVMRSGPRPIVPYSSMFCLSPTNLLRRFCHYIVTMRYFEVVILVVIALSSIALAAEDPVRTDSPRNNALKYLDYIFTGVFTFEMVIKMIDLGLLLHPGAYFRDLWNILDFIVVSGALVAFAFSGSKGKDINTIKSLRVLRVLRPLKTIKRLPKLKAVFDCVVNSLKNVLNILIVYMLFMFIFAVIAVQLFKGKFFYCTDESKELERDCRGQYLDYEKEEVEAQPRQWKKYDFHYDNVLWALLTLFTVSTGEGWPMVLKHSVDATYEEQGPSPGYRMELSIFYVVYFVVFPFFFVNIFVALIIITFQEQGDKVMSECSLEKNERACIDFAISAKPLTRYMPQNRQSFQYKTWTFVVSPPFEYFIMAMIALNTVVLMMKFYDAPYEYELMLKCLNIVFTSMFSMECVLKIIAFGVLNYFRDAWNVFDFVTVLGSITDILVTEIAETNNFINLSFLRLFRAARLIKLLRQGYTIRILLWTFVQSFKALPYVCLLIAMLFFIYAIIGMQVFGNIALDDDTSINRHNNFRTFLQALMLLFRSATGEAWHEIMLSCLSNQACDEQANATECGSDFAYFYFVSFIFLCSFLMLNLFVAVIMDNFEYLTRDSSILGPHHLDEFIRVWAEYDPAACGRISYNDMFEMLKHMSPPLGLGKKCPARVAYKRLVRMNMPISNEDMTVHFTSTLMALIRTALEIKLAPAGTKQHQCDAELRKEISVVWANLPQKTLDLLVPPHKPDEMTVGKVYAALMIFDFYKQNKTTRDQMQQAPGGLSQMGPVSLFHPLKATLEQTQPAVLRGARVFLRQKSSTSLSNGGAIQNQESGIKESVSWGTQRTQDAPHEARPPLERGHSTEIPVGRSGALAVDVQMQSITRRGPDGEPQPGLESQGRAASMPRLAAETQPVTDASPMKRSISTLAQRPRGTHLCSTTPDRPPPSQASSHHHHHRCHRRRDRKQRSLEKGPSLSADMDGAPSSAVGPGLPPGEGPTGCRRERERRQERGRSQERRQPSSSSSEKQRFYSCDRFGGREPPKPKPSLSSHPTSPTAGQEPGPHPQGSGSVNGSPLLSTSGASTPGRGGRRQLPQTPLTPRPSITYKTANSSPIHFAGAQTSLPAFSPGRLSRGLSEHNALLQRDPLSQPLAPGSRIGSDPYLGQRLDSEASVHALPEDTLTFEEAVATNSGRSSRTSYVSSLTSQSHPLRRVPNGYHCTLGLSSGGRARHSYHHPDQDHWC
# Sequence (P54289 25-956 partner limits assumed): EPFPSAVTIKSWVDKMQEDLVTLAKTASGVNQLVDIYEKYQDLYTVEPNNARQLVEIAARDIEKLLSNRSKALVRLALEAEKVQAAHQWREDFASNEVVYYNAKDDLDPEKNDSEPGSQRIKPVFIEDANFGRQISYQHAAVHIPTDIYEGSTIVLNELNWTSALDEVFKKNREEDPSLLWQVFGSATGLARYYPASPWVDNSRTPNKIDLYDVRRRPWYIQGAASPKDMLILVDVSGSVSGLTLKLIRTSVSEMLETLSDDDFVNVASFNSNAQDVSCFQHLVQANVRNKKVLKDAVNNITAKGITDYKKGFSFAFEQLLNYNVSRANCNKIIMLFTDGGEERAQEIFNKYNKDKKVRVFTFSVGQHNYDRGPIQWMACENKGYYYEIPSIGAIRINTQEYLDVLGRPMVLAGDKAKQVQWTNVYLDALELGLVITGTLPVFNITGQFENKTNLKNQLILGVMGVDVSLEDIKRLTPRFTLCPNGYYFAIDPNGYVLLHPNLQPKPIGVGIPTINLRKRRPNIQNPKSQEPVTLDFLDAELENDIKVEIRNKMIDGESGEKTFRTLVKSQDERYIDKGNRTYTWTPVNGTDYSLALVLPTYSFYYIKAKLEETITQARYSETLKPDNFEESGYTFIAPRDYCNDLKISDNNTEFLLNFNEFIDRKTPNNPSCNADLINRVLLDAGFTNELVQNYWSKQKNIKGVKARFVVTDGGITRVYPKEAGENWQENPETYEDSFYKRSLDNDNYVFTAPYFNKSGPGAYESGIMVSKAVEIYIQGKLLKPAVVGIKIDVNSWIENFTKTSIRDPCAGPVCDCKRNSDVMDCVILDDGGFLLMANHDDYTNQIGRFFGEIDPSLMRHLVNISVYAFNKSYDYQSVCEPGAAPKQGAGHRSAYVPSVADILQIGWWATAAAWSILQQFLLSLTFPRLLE
# Sequence (P54289 957-1103 partner limits assumed): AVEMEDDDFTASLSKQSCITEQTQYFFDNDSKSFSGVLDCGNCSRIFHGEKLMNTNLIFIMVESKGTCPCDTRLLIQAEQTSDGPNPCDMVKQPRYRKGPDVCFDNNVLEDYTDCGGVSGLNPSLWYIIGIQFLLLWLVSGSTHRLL
# Sequence (P54284 whole entry partner): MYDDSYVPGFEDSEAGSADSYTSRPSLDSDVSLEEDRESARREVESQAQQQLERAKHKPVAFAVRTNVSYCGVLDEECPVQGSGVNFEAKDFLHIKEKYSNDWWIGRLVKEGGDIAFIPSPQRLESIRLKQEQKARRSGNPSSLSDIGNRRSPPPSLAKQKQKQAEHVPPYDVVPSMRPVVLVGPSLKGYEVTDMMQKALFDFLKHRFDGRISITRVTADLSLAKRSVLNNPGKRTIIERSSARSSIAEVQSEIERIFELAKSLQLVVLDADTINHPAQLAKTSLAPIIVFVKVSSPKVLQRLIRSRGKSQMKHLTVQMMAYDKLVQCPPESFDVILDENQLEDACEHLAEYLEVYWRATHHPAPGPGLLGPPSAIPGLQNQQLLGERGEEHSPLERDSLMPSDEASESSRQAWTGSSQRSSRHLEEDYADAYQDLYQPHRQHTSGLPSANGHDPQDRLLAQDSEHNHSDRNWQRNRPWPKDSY
# protocol-details: Assessment of calcium channel activity using FLIPR (Ca2+ influx in IMR32 cells)
# Format: cell-based
# test-parameters: read-out: IC50 (μM) or percent inhibition (* indicates 3 minute incubation, otherwise 60 minute); IC50; 60 minute pre-incubation with compound; IMR32 cells, 80 mM KCl depolarization
Overview of reported IC50 across a group of molecules:
# value in µM; strip the unit string

{"columns": ["molecule", "result-type", "value-observed"],
 "data": [
  ["CC(C)[C@H](N)CC(=O)N[C@@H]1CC[C@H]2CN(S(=O)(=O)c3cccc(C(F)(F)F)c3)C[C@H]21 [Example 397]", "IC50", 1.46]
]}

Form field: reported IC50 of CC(C)C[C@H](NS(=O)(=O)C1CC1)C(=O)N[C@H]1CC[C@H]2CN(Cc3cccc(C(F)(F)F)c3)C[C@H]21 [Example 174] 1.04

Form field: reported IC50 of CC(C)C[C@H](NC(=O)OC1CCCC1)C(=O)N[C@@H]1CC[C@H]2CN(Cc3cccc(C(F)(F)F)c3)C[C@H]21 [Example 179] 0.89

Form field: reported IC50 of FC(F)(F)c1cccc(CN2C[C@@H]3CC[C@H](N(C4CC4)C4CC4)[C@@H]3C2)c1 (relative stereo) [Example 196] 3.18

Form field: reported IC50 of CC(C)C(C(=O)N[C@H]1CC[C@@H]2CN(Cc3cccc(C(F)(F)F)c3)C[C@@H]21)c1ccccc1 (stereo partly drawn) [Example 88] 1.18

Form field: reported IC50 of CC(C)C[C@H](NC(=O)C(C)(C)C)C(=O)N[C@@H]1CC[C@H]2CN(Cc3cccc(C(F)(F)F)c3)C[C@H]21 [Example 177] 2.64

Form field: reported IC50 of C[C@H](C(=O)N[C@@H]1CC[C@H]2CN(Cc3ccccc3)C[C@H]21)c1cccc(C(=O)c2ccccc2)c1 (relative stereo) [Example 13] 23.6

Form field: reported IC50 of CCC[C@H](NC)C(=O)N[C@H]1CC[C@@H]2CN(S(=O)(=O)c3ccc(C(C)(C)C)cc3)C[C@@H]21 [Example 543] 3.2

Form field: reported IC50 of O=C(N[C@@H]1CC[C@H]2CN(Cc3ccc(F)cc3)C[C@H]21)[C@@H]1CCCCN1 [Example 368] 12.4

Form field: reported IC50 of CC(C)C[C@H](N)C(=O)N[C@H]1CC[C@H]2CN(Cc3cccc(C(F)(F)F)c3)C[C@H]21 (stereo in doubt) [Example 158] 3.51

Form field: reported IC50 of O=C(CCCCC(c1ccc(F)cc1)c1ccc(F)cc1)N[C@H]1CC[C@H]2CN(Cc3cccc(C(F)(F)F)c3)C[C@H]21 (relative stereo) [Example 130] 0.79

Form field: reported IC50 of CC(C)(C)C(C(=O)N[C@H]1CC[C@@H]2CN(Cc3ccccc3)C[C@@H]21)c1ccccc1 (stereo partly drawn) [Example 52] 3.36

Form field: reported IC50 of CCC[C@H](NC)C(=O)N[C@H]1CC[C@@H]2CN(S(=O)(=O)Cc3ccc(C(F)(F)F)cc3)C[C@@H]21 [Example 549] 2.73

Form field: reported IC50 of O=C(N[C@@H]1CC[C@H]2CN(C(c3ccccc3)c3ccccc3)C[C@H]21)C(C1CCCCC1)C1CCCCC1 [Example 121] 14.3

Form field: reported IC50 of Cc1ccc(CN2C[C@@H]3CC[C@H](NC(=O)C(C4CCCCC4)C4CCCCC4)[C@@H]3C2)cc1 [Example 62] 1.64
